- Test system: SN12C
- test-method-notes: NCI tumour cell line growth inhibition, 48 h
Calls of active or inactive are those of the source. Rule as the data show it: active = GI50 up to about 1.1 µM and inactive = higher.
I would appreciate it if you answered using one of these outcomes: Yes for active, No for inactive

molecule	class
Nc1nc(N)nc(-c2cnc3ccccc3c2)n1	No
CC(=O)OCC1OC(OCCCOP(=O)(OCCC#N)OCC2OC(n3cnc4c(N)ncnc43)C(OC(=O)c3ccccc3)C2OC(=O)c2ccccc2)C(OC(C)=O)C(OC(C)=O)C1OC(C)=O (configuration not stated)	No
CC1(C)[C@@H]2C[C@H]1C(Cc1ccc(C[C@H]3c4cc(-c5ccccn5)ncc4[C@H]4C[C@@H]3C4(C)C)cc1)c1cc(-c3ccccn3)ncc12 (some centres not stated)	Yes
Cc1ccc2[nH]c3c(C)c4ccncc4c(C)c3c2c1	Yes

Assay result, entry `c1ccc2c(c1)ccn2CCc1c[nH]c2ccccc12` — outcome? No

`CN(C)CCCNC(=O)c1cc(NC(=O)c2cc(NC(=O)[C@H]3C[C@@H]3C(=O)Nc3cc(C(=O)Nc4cc(C(=O)NCCCN(C)C)n(C)c4)n(C)c3)cn2C)cn1C` ? No

Try the molecule Cc1ccc(NP(=O)(Oc2ccccc2)N(CCCl)CCCl)cc1 (configuration not stated) No

Subsequent entry: `CNC(=O)NCCN1CC2CCC(CC2)C1` No

Cool, now `COc1cc(CNc2nc3cc(C(F)(F)F)ccc3nc2-c2ccccc2)cc(OC)c1OC` No

Also CC[C@]12C=CCN3CCC4(c5cc([C@@]6(C(=O)OC)CC7CN(CCc8c6[nH]c6ccccc86)C[C@@H]6CCC[C@H]76)c(OC)cc5N(C)C4[C@](O)(C(=O)OC)C1OC(C)=O)C32 (some centres not stated) ? Yes

What do you get for COc1cc(C(C[N+](=O)[O-])SC(C)=O)ccc1OCc1ccccc1 (configuration not stated) ? No

Let us now turn to `CC(=O)Oc1ccc2cc(-c3ccc(OC(C)=O)c(OC(C)=O)c3)c(=O)oc2c1` No

###

- Tested on: ACHN
- test-method-notes: NCI tumour cell line growth inhibition, 48 h
Activity calls are given as the source filed them. Rule as the data show it: active = GI50 up to about 1.1 µM and inactive = higher.
Log the outcome using a class from y for active, n for inactive

Worked cases, answers included:
>>> df
                                   compound  test_target  class
0  O=c1[nH]c(=O)n(C2OC3COC2C3O)cc1F (stereo unspecified)         ACHN      n
1         CC1(C)C(CBr)=[N+]([O-])C(C)(C)N1O         ACHN      n
2  C[C@H](NC1=CC(=O)C(N[C@@H](C)[C@H](O)c2ccccc2)=CC1=O)[C@H](O)c1ccccc1         ACHN      n
3  COc1cc(C(C[N+](=O)[O-])SC(C)=O)ccc1OCc1ccccc1 (stereo unspecified)         ACHN      n
4  Cc1cc(N)c2ccccc2[n+]1CCCCCCCCCCNc1cc(C)[n+](CCCCCCCCCC[n+]2c(C)cc(N)c3ccccc32)c2ccccc12         ACHN      y

Next item in the queue.
Hi team, can someone confirm the assay call for `Cc1ccc2c(c1)C(=O)c1[nH]c3ccc(F)cc3c1CO2` ? n

###

- Test system: COLO 205
- test-method-notes: NCI tumour cell line growth inhibition, 48 h
Active and inactive are the calls of the source. Rule as the data show it: active = GI50 up to about 1.1 µM and inactive = higher.
Result category, one only: t (active), f (inactive)

Use the examples below as a reference point.
compound	class
NC(=O)NC1NC(=O)NC1=O (stereo not given)	f
COc1cccc2c1CCc1c(-c3ccc(F)cc3)cc(-c3ccc4ccccc4n3)nc1-2	f
CC(=O)c1cc2c(s1)C(=O)c1ccccc1C2=O	f

In this assay, the call recorded for `COC[C@H]1C(=O)NCC(=O)N2N=CCC[C@H]2C(=O)N(O)[C@H](C)C(=O)O[C@@H](C(C)C)[C@H](NC(=O)[C@@](C)(O)[C@]2(O)CC[C@@H](CC(C)C)[C@H](C)O2)C(=O)N2NCCC[C@@H]2C(=O)N1O` was what? t

Query `CCOC(=O)CC(=O)C(=O)NN=C1NCCN1` next f

###

For each entry below, report its GI50 value.
- Tested on: HT-29
- test-method-notes: NCI tumour cell line growth inhibition, 48 h
Calls of active or inactive are those of the source. No stated cut-off is given here; in the data, active = GI50 up to about 1.1 µM and inactive = higher.

# count of solved cases: 5
                                   molecule               result
0  Cc1cc(N)c2ccccc2[n+]1CCCCCCCCCCNc1cc(C)[n+](CCCCCCCCCC[n+]2c(C)cc(N)c3ccccc32)c2ccccc12   11.6 µM (inactive)
1  CCOC(=O)C(Cl)(NC(=O)c1ccc(F)cc1)C(F)(F)F (stereo unspecified)  > 100 µM (inactive)
2  CC(C)(C)C(=O)ON1N=NC2C3CC(OCc4ccccc4)(OCc4ccccc4)C(O3)C21 (stereo unspecified)   22.3 µM (inactive)
3  O=C1C=C(c2ccccc2)O/C1=C\C(=O)c1ccc(Cl)cc1   3.58 µM (inactive)
4  O=c1cc(-c2ccccc2)oc2cc(OCCCCCCCCCCOc3ccc4c(=O)cc(-c5ccccc5)oc4c3)ccc12  > 100 µM (inactive)

For every item below, please supply its GI50.
1. Oc1nnc(CNc2ccc(Cl)cc2Cl)c2ccccc12
2. Cc1ccc(S(=O)(=O)NC(=O)NC(Cc2ccc(O)c(O)c2)C(=O)O)cc1 (stereo unspecified)
3. O=C(CC(C(=O)c1cccs1)c1ccsc1)c1cccs1 (stereo unspecified)
4. COc1cc(OC)c2c(O)c(S(=O)(=O)c3ccc(C)cc3)c(=O)oc2c1
5. CCOC(=O)N1[C@@H]2CCC[C@@H]2C(=O)[C@@H]2CCC[C@@H]21
6. CC1(C)C(CBr)=[N+]([O-])C(C)(C)N1O
7. CN(C)CCCNC(=O)c1cc(NC(=O)c2cc(NC(=O)[C@H]3C[C@@H]3C(=O)Nc3cc(C(=O)Nc4cc(C(=O)NCCCN(C)C)n(C)c4)n(C)c3)cn2C)cn1C

31.8 µM (inactive)
> 100 µM (inactive)
> 100 µM (inactive)
> 100 µM (inactive)
> 100 µM (inactive)
> 8.75 µM (inactive)
> 100 µM (inactive)

###

Would you kindly list GI50 for each of these compounds?
- Test system: Malme-3M
- test-method-notes: NCI tumour cell line growth inhibition, 48 h
Activity calls are given as the source filed them. No stated cut-off is given here; in the data, active = GI50 up to about 1.1 µM and inactive = higher.

Below, 3 compounds whose answers are already recorded.
>>> df
                                   compound  test_target  measurement_label               result
0  O=C1OCCC12CN(Cc1ccccc1)N=N2 (centres undefined)     Malme-3M               GI50   12.1 µM (inactive)
1  O=C(CC1(O)C(=O)Nc2ccccc21)c1ccc(O)cc1O (centres undefined)     Malme-3M               GI50  > 100 µM (inactive)
2  O=c1[nH]c(Nc2nc3ccccc3[nH]2)nc(O)c1-c1ccccc1     Malme-3M               GI50  > 100 µM (inactive)

Then this compound:
Quick one: GI50 for COC(=O)/C(=N/NC(N)=O)C(C(=O)OC)C(=O)C(=O)Nc1ccc(Cl)cc1 (centres undefined) ? > 100 µM (inactive)

###

- System: M14
- test-method-notes: NCI tumour cell line growth inhibition, 48 h
Activity calls are given as the source filed them. Rule as the data show it: active = GI50 up to about 1.1 µM and inactive = higher.
Bench note: report the call from 1.0 = active, 0.0 = inactive

# example entries with known answers
compound	class
C/C(=C1/CCC/C(=C(/C)c2ccccc2)C1=O)c1ccccc1	0.0
CCO/C([O-])=C(/C=O)[n+]1c(C)n(C)c2ccccc21	0.0
COc1cc(C2C(Cl)C(=O)N2NC(=O)c2ccccc2O)ccc1O (centres undefined)	0.0
ClC1c2ccccc2C2(c3ccccc3)OOC1(c1ccccc1)O2 (centres undefined)	0.0
CN(C)CCNC(=O)c1cccc2nc3ccc4cccnc4c3nc12	1.0

Look up the recorded call for `O=C(O)c1nn(-c2ccc(Cl)cc2)c2c1C(=O)c1ccccc1C2=O` in this test. 0.0

Let us now turn to Cc1ccc(S(=O)(=O)N2CCCCC2CCO)cc1 (centres undefined) 0.0

Try the compound NC(=O)CN1C=CCC(C(N)=O)=C1 [CARICOTAMIDE] 0.0

Again, but for `O=Cc1ccccc1OCCOc1cc(OCCOc2ccccc2C=O)c(OCCOc2ccccc2C=O)cc1OCCOc1ccccc1C=O` 0.0

Now consider C/C(=C\COc1cc(O)c2c(c1)C(=O)c1cc(C)cc(O)c1C2=O)CCC1OC1(C)C (centres undefined) . 0.0

Also `CCOC(=O)C1=C(Nc2ccccc2)SCC1=O` , if possible. 0.0

Entry to check: `Cc1cccc(/C=C2\CCCCCC2=O)c1` 0.0

Here is the next compound: COc1ccc(N2C(Cl)C(=O)C2c2c[nH]c3ccccc23)cc1 (centres undefined) 0.0
